- Tested on: OV90
- ASSAY_NOTES: Primary qHTS to identify gynecologic anti-cancer compounds using libraries of approved drugs and bioactive compounds (AID 1345084); also: nearly all actives have a fitted effect of over 55% in size
- CONDITION_INFO: Gynecologic cancer cell panel viability, ATPlite luminescence, 48 h; series mostly up to 57.5 µM
Records with an inconclusive call do not appear. Calls of active or inactive are those of the source. Calls follow the shape of the dose curve; as a rule, active = well fitted cell-killing curve with a large enough effect; inconclusive = small, poorly fitted or top-dose-only effect, or effect the other way; inactive = flat fitted curve, though single readings scatter.
Labels: active, inactive

In [3]: df
Out[3]:
                            compound_smiles  class_name
0  Cc1c(-c2ccccc2)oc2c(C(=O)OCCN3CCCCC3)cccc2c1=O    inactive
1        CCOC(=O)[C@@](C)(N)Cc1ccc(O)c(O)c1    inactive
2  CN1CCC[C@@H]1CCO[C@](C)(c1ccccc1)c1ccc(Cl)cc1      active
3  C#C[C@]1(OC(C)=O)CC[C@H]2[C@@H]3CCC4=C/C(=N/O)CC[C@@H]4[C@H]3CC[C@@]21CC    inactive
4  CCc1cc(Cl)c(OC)c(C(=O)NC[C@@H]2CCCN2CC)c1O    inactive
5                       Cc1ncc(CO)c(C=O)c1O    inactive

The measurements presented in this section are drawn from PubChem BioAssay (NCATS).
